Test system: PC-3 prostate
Assay: NCI-60 one-dose screen, 48 h (100 = growth as untreated, 0 = no growth, -100 = all killed)
Conditions: 10 µM unless noted
Experimental: Growth inhibition of the PC-3 human tumor cell line is measured as a screen for anti-cancer activity. Cells are grown in 96 well plates and exposed to the test compound for 48 hours. Compounds are tested at a single concentration, which is 10^-5 M for most compounds. The reported endpoint is percent growth (GI% or GIPRCNT), where numbers from 0 - 100% represent growth inhibition, and numbers from -100% - 0 represent cell death. For example, a value of 40 represents 60% growth inhibition. […]
Compounds without any hit were thinned out: in the full panel of roughly 83,000, 20% have a hit.
Please go through the items and note down their growth.
Give bare numbers, in %.

I'm hoping you can list growth for every compound here, please.
1. COc1ccc2c(c1)CC[C@H](O)/C2=C/c1cc(OC)c(OC)c(OC)c1
2. COc1cc2c(c(OC)c1OC)CCC(c1cccc(C(=O)Nc3ccc(C#N)cc3)c1)O2 (stereo not given)
3. COc1ccc(/C=C/C(=O)c2ccc(Nc3ccnc4cc(Cl)ccc34)cc2)cc1

[17.8, 14, 75]

Give me growth for each of these compounds, listed below.
1. COC(=O)c1c2c(c(C)[n+]([O-])c1C)C(=O)C(NCc1cccc(OC)c1)=CC2=O
2. Clc1ccc2c(c1)C(c1c[nH]c3ccccc13)(c1c[nH]c3ccccc13)CCO2
3. O=S(=O)(Nc1cc(Cl)ccc1Cl)c1ccc(-c2cnc(C3CC3)o2)cc1
4. NC(Cc1ccc(O)c([N+](=O)[O-])c1)C(=O)O (stereo not given)
5. COc1ccc(-c2noc(C(=O)O)c2-c2cc(OC)c(OC)c(OC)c2)cc1
6. CC(C)C1=NOC(=O)C1=Cc1cn(-c2ccccc2)nc1-c1ccc(F)cc1
7. NS(=O)(=O)c1ccc(N=Nc2c(O)n(Cc3ccccc3)c3ccc(Cl)cc23)cc1

1: 6.62; 2: 35.3; 3: 38.3; 4: 90.5; 5: 26.3; 6: 38.5; 7: 83.8

# batch: return growth for each of the 4 compounds below
1. Cc1ccc(C2=Nc3c(N)ncnc3NC(c3cccc(Nc4ccnc5cc(C(F)(F)F)ccc45)c3)C2)cc1 (stereo not given)
2. CCOC(=O)C1=C(c2ccccc2)N=C2SC=C(c3ccc(Cl)cc3)N2C1c1ccc(Br)cc1 (stereo not given)
3. COC12C=C/C(=C(/C(=O)OCc3ccncn3)C(=O)CCCCCCCCC3(OC)C=C/C(=C(/C(=O)OCc4ccncn4)C(=O)CCCCCCCC1)O3)O2
4. O=C1c2ccccc2-c2c1c1c(=O)[nH]c3ccccc3c1n2Cc1ccccc1

16.1
40.6
-36.7
74

Parameter requested: growth. Apply to each item below.
1. O=C(NCc1ccc(Cl)cc1Cl)C1CCC(=O)N1c1cccs1 (stereo not given)
2. COc1ccc(-c2ccc(=O)oc2-c2cc(OC)c(OC)c(OC)c2)cc1O
3. COCCOc1cc2ncnc(N3CCN(c4cc(S(C)(=O)=O)c(C)cc4Cl)CC3)c2cc1OCCOC
4. C=CC(=O)N1CCN(c2cccc(Oc3nccc(Nc4nnc(-c5ccc(Br)cc5)s4)n3)c2)CC1
5. CC(C)COc1nc2c(c(=O)n(C)c(=O)n2C)n1C
6. Cc1[nH]c(C(=O)Nc2ccc(C(=O)N3CCN(c4cc5c(cc4F)c(=O)c(C(=O)O)cn5C4CC4)CC3)cc2OC(C)C)c(Cl)c1Cl

87.4
36.9
81.5
61.1
102
59.1

###

System: OVCAR-4 ovarian
Assay: NCI-60 one-dose screen, 48 h
Conditions: 10 µM unless noted
About 83,000 compounds went through this panel and 20% of them were active in at least one assay; those are over-represented in the sample as a whole. The source made the active and inactive calls. How the source made its calls: active means growth percent below 10; inactive means the rest.
Would you mind answering with one of these outcomes? yes (1) (active), no (0) (inactive)

Example cases with answers are listed next.
• COc1cc2ncnc(Nc3ccc(S(=O)(=O)Nc4cc(C)on4)cc3)c2cc1OCCCN1CCN(c2ccc(F)cc2)CC1 = no (0)
• N#Cc1c(-c2ccc(Cl)cc2)c(C#N)c2c(C#N)c(N)nn2c1N = no (0)
• O=C(/C=C/c1cn(-c2ccccc2)nc1-c1ccc(Cl)cc1)c1ccc(F)cc1 = no (0)
• COc1ccc(F)cc1/C=C/C(=O)/C=C(/C=C/c1cc(F)ccc1OC)OB(F)F = no (0)

Would you mind telling me which call this test gave Cc1cc(N2CCN(CCNc3ccnc4cc(Cl)ccc34)CC2)nc(N2CCOCC2)n1 ?
no (0)

Could you check what this test reported for COc1ccc(C(=O)N2c3ccccc3Sc3ccccc32)c(OC)c1 ?
no (0)

Could you kindly confirm the outcome this assay logged for CCCNc1nc2ccccc2c2c1S(=O)(=O)c1ccc(Cl)cc1C2=O ?
no (0)

###

Test system: NCI-H226 lung
Assay: NCI-60 one-dose screen, 48 h (100 = growth as untreated, 0 = no growth, -100 = all killed)
Settings: 10 µM unless noted
About 83,000 compounds went through this panel and 20% of them were active in at least one assay; those are over-represented in the sample as a whole. Active and inactive are the calls of the source. The calls were made as follows: active = growth percent below 10; inactive = the rest.
Kindly state growth for each of the entries shown.

- COc1ccc(C(O)c2cc3c(N)c(C(=O)Nc4cccc(Br)c4)sc3nc2C)cc1 (centres undefined): 3.81% (active)

State recorded growth for all listed molecules.
1. COc1cc(-c2nc3sccn3c2-c2ccnc(NCCNS(=O)(=O)c3ccccc3)n2)ccc1F
2. O=C1C(Cl)=C(NCCCCCCNC2=C(Cl)C(=O)c3ccccc3C2=O)C(=O)c2ccccc21
3. CC(=O)Oc1ccc(C)cc1C
4. COc1cc(NS(=O)(=O)c2ccc(-c3cnc(C4CC4)o3)cc2)ccc1F
5. O=C(CN1CCCCC1)Nc1nc(-c2cc3ccccc3oc2=O)cs1
6. Cc1cc(N2CCCCC2)cc(C)c1-c1csc(NC(=O)c2ccncc2)n1
7. COc1cc2ncnc(Nc3ccc(S(=O)(=O)Nc4cc(C)on4)cc3)c2cc1OCCCN1CCN(c2ccc(F)cc2)CC1

["41.2% (inactive)", "102% (inactive)", "107% (inactive)", "36.7% (inactive)", "88.3% (inactive)", "60.6% (inactive)", "98.1% (inactive)"]

###

System: OVCAR-3 ovarian
Assay: NCI-60 one-dose screen, 48 h (100 = growth as untreated, 0 = no growth, -100 = all killed)
Settings: 10 µM unless noted
About 83,000 compounds went through this panel and 20% of them were active in at least one assay; those are over-represented in the sample as a whole.
Returns one of Y or N; Y when growth is >= 30%.

- O=C1C(=O)N(Cc2ccc(-c3ccccc3)cc2)c2ccc(OC(F)(F)F)cc21: N
- CCC(C)(C)C(=O)O[C@H]1C[C@@H](C)C=C2C=C[C@H](C)[C@H](CC[C@@H]3CC(SCCN)CC(=O)O3)[C@H]21 (stereo not given in full): Y
- Cc1nc2sc(C(=O)Nc3ccc(Br)cc3)c(N)c2cc1C(O)c1ccccc1 (stereo not given): Y
- COc1cc2c(c(OC)c1OC)CCC(c1cccc(NC(=O)c3ccc(Br)cc3)c1)O2 (stereo not given): Y
- COc1ccc(C2=C(Br)C(=O)c3nc(C)ccc3C2=O)cc1: Y
- O=C(/C=C/c1ccccc1)Nc1ncc(Cc2ccccc2Cl)s1: N

# check: growth of Nc1nc2ccccc2c2c1S(=O)(=O)c1ccc(Cl)cc1C2=O is greater than or equal to 30%
N

Threshold query (growth >= 30%) on CCOC(=O)NC(C)C
Y

Please indicate if the recorded growth for Cc1ccc(C)n1-c1ccccc1-n1c(C)ccc1C meets or exceeds 30%.
Y

###

Test system: OVCAR-4 ovarian
Assay: NCI-60 one-dose screen, 48 h (100 = growth as untreated, 0 = no growth, -100 = all killed)
Conditions: 10 µM unless noted
Compounds without any hit were thinned out: in the full panel of roughly 83,000, 20% have a hit.
endpoint.label: growth (%)
One number for each entry, in %.

The cases that follow already have their growth on record.
• O=C(/C=C/c1cccs1)Nc1ncc(Cc2ccccc2F)s1 = 48
• C#CCOC(=O)/C=C/c1cn(-c2ccccc2)nc1-c1ccc(OC)cc1 = 90.7

Pending molecule:
# get_value(readout='growth', item= COc1cc(OCc2cccc(Br)c2C)cc(OC)c1C=O )
67.7

###

Test system: PC-3 prostate
Test: NCI-60 one-dose screen, 48 h (100 = growth as untreated, 0 = no growth, -100 = all killed)
Conditions: 10 µM unless noted
Method: Growth inhibition of the PC-3 human tumor cell line is measured as a screen for anti-cancer activity. Cells are grown in 96 well plates and exposed to the test compound for 48 hours. Compounds are tested at a single concentration, which is 10^-5 M for most compounds. The reported endpoint is percent growth (GI% or GIPRCNT), where numbers from 0 - 100% represent growth inhibition, and numbers from -100% - 0 represent cell death. For example, a value of 40 represents 60% growth inhibition. […]
About 83,000 compounds went through this panel and 20% of them were active in at least one assay; those are over-represented in the sample as a whole.
endpoint.label: growth (%)
One number for each entry, in %.

Use the examples below as a reference point.
* COCCn1cc(-c2nc(-c3cc4cccnc4[nH]3)cs2)c2cc(OC)ccc21 | 10.4
* O=C(N/N=C/c1c(Cl)cccc1Cl)c1cccnc1Nc1cccc(C(F)(F)F)c1 | 24.3
* CN1CCN(C(=O)c2ccc(NC(=O)c3cc4c(nn3)NCCN4Cc3cc(Cl)ccc3Cl)cc2)CC1 | 71.1
* CCCCCOC(=O)c1c(C)[nH]c(/C=C2\N=C(c3ccc[nH]3)C=C2OC)c1C | 12.3
* CCC(=O)Oc1ccc(-c2ccccc2)cc1Br | 95.4
* O=C(NNC(=O)c1ccc(NC(=O)c2ccccn2)cc1)Nc1ccc([N+](=O)[O-])cc1 | 94.5

Give growth for each of the items listed below.
1. CCC(C(=O)[C@@H](C)[C@@H](O)[C@H](C)[C@@H]1O[C@@H]([C@@H](CC)C(=O)ONC(=O)c2ccccc2)CC[C@@H]1C)[C@H]1O[C@]2(C=CC(=O)[C@]3(CC[C@@](C)([C@H]4CC[C@](O)(CC)[C@H](C)O4)O3)O2)[C@H](C)C[C@@H]1C (stereo partly drawn)
2. COc1ccc(C/C(C)=C(\c2ccc(Cl)cc2)c2ccc(OCCN3CCCCC3)cc2)cc1

1: 8.93; 2: 94.6
